# Test system: Caco-2
# ASSAY_NOTES: cell viability relative to DMSO; higher = less toxic
# EXPERIMENTAL_CONTEXT: 72 h; 100 nM
MEASURED_QUANTITY: cell viability (%)
Hi! Could you send only the number? It should be in %, unit omitted.

C[C@]12C/C(=C/O)C(=O)C[C@@H]1CC[C@@H]1[C@@H]2CC[C@@]2(C)[C@H]1CC[C@]2(C)O = 102
Nc1cccc2c1C(=O)N(C1CCC(=O)NC1=O)C2=O (centres undefined) [pomalidomide] = 103

# input GET /values?readout=cell viability&item= `CCCCCCN(CCCCCC)C(=O)Cc1c(-c2ccc(Cl)cc2)[nH]c2ccc(Cl)cc12`
# output 101

# input GET /values?readout=cell viability&item= `Oc1cc(O)c2cc(O)c(-c3cc(O)c(O)c(O)c3)[o+]c2c1`
# output 90.8

Sourced from the supplement of paper PMC13380429
